Biological target: human PI3Kδ enzyme (Homo sapiens)
Sequence (O00329 whole entry): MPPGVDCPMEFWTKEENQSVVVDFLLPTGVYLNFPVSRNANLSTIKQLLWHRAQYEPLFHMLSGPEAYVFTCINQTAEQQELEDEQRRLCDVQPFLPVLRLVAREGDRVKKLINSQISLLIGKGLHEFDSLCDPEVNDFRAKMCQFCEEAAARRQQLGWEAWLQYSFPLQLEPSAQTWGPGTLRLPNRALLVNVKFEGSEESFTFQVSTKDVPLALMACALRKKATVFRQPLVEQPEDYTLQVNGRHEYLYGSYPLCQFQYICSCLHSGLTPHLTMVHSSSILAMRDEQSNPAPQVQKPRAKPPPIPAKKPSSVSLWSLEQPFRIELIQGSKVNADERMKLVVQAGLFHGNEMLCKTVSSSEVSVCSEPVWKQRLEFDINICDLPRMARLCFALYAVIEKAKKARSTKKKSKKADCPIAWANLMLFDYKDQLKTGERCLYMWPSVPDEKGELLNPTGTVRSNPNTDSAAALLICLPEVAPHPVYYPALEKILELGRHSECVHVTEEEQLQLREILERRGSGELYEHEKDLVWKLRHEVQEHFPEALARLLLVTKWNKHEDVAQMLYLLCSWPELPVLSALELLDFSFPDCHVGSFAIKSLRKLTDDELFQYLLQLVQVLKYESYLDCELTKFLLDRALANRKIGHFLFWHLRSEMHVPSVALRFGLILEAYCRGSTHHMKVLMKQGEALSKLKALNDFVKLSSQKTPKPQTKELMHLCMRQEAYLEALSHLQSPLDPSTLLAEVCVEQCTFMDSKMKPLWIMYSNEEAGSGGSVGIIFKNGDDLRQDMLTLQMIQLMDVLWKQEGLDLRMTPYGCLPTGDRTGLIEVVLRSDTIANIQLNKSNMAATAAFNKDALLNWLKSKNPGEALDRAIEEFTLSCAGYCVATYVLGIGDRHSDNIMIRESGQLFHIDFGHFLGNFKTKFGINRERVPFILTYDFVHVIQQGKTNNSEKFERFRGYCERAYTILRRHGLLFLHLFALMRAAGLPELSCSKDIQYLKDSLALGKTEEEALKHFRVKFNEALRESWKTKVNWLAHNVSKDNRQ
Sequence (P27986 whole entry partner): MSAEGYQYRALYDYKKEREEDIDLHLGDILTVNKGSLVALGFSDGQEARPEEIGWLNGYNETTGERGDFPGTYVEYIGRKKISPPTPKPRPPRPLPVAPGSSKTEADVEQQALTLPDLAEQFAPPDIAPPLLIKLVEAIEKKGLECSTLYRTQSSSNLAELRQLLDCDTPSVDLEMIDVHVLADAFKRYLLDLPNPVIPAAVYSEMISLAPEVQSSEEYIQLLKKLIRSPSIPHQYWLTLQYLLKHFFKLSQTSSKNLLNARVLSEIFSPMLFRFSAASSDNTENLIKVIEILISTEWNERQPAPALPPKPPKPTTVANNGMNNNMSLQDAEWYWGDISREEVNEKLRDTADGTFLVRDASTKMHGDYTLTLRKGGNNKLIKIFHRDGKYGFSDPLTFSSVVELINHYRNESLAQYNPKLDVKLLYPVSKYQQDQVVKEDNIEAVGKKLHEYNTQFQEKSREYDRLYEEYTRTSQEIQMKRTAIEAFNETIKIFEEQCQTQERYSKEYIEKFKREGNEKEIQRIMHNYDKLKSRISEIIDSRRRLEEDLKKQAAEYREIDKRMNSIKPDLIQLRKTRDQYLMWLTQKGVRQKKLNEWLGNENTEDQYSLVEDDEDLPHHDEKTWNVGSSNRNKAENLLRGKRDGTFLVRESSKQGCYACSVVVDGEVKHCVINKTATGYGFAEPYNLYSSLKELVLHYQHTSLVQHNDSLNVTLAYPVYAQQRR
Hi! Just check whether IC50 is below 20 nM. Below gives satisfied, equal or above gives not satisfied.

Item Fc1ccccc1N1CCC(CNc2nc(N3CCOCC3)cc(-n3c(C(F)F)nc4ccccc43)n2)CC1 : IC50 beneath 20 nM, strictly?
satisfied

Does FCC(CF)N1CCC(CNc2nc(N3CCOCC3)cc(-n3c(C(F)F)nc4ccccc43)n2)CC1 have IC50 strictly under 20 nM?
satisfied

Determine if CN(C)CC(=O)N1CC(Nc2nc(N3CCOCC3)cc(-n3c(C(F)F)nc4ccccc43)n2)C1 shows IC50 strictly lower than 20 nM.
not satisfied

Decide: IC50 of O=C(CC1CCOCC1)N1CC[C@H](Nc2cc(-n3c(C(F)F)nc4ccccc43)nc(N3CCOCC3)n2)C1 strictly below 20 nM?
not satisfied

Check if IC50 falls below 20 nM for FC(F)c1nc2ccccc2n1-c1cc(N2CCOCC2)nc(NCC2CCN(C3CCOCC3)CC2)n1 .
satisfied

Problem: For the compound CC1(NCC(=O)N[C@H]2CC[C@H](Oc3cc(-n4c(C(F)F)nc5ccccc54)nc(N4CCOCC4)n3)CC2)CC1 , is IC50 under 20 nM?
satisfied

* * *

Exercise: for every item that follows, state its recorded pIC50.
Counter-ions that a name gives are not always drawn.
As a rule, pIC50 stands for the negative log10 of the concentration, concentration in M.

// fetch human PI3Kδ enzyme (Homo sapiens) pIC50 for O=C(C1CCOCC1)N1CC[C@H](Nc2cc(-n3c(C(F)F)nc4ccccc43)nc(N3CCOCC3)n2)C1 [A293]
7.72

Can you look up pIC50 on human PI3Kδ enzyme (Homo sapiens) for CN(C)CC(=O)N1CCC(CNc2nc(N3CCOCC3)nc(-n3c(C(F)F)nc4ccccc43)n2)CC1 [Example 67] ?
7.33

Query for human PI3Kδ enzyme (Homo sapiens): what pIC50 does the record show for C[C@H]1COCCN1c1cc(-n2c(C(F)F)nc3ccccc32)nc(NCC2CCN(C(=O)OC(C)(C)C)CC2)n1 [Example 13] ?
7.44

Find pIC50 (human PI3Kδ enzyme (Homo sapiens)) for the entry CN1CC(C(=O)N2CC[C@H](Oc3cc(-n4c(C(F)F)nc5ccccc54)nc(N4CCOCC4)n3)C2)CC1=O (stereo partly shown) [A451]
7.46

Hi! What's the reported pIC50 for O=C(CNC1CCCCC1)N[C@H]1CC[C@H](Oc2cc(-n3c(C(F)F)nc4ccccc43)nc(N3CCOCC3)n2)CC1 [Example 135] on human PI3Kδ enzyme (Homo sapiens)?
8.52

Query for human PI3Kδ enzyme (Homo sapiens): what pIC50 does the record show for NC1(C(=O)N[C@H]2CC[C@H](Oc3cc(-n4c(C(F)F)nc5ccccc54)nc(N4CCOCC4)n3)CC2)CCC1 [Example 215] ?
7.89

Checklist item: pIC50 tested on human PI3Kδ enzyme (Homo sapiens), entry FC(F)c1nc2ccccc2n1-c1cc(N2CCOCC2)nc(NCC2CCN(c3ccccc3)CC2)n1 [Example 44, dihydrochloride] , value?
7.85

* * *

Each entry below carries its measured pIC50, system: Human PI3Kα (Homo sapiens, UniProt P42336).
Sequence (P42336 whole entry): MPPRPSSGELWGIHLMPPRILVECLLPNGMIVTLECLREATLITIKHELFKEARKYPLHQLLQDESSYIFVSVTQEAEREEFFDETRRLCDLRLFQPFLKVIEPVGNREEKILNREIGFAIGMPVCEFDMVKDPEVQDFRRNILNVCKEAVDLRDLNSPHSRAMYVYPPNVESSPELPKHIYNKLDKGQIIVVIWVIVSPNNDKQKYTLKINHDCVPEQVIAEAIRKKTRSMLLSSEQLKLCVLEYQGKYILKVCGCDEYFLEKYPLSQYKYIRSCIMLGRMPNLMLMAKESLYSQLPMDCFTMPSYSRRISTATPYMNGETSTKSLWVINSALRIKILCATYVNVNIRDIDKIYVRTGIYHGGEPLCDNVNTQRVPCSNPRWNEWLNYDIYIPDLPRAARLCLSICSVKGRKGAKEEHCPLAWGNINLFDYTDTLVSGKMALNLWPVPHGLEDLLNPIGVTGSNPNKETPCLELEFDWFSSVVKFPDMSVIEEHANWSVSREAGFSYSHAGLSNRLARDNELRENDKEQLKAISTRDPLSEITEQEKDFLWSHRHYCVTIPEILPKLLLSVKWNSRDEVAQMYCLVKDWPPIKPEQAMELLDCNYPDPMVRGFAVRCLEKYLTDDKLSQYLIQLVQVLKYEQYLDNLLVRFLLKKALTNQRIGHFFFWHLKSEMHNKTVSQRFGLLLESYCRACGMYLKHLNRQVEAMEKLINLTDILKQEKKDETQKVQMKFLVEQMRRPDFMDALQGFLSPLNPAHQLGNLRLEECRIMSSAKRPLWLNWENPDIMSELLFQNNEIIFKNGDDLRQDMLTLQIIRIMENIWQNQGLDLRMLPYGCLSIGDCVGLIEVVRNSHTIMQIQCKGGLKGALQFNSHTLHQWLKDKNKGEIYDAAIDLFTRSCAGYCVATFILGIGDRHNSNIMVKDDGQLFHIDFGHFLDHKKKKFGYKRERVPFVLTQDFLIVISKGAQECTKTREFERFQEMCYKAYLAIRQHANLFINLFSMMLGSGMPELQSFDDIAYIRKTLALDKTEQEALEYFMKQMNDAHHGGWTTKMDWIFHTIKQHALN
Sequence (P27986 whole entry partner): as the sequence (P27986 whole entry partner) above
Where a name gives a salt, the structure may show the parent alone.
By convention, pIC50 is the negative base-10 log of a molar concentration.

Which pIC50 is listed for FC(F)c1nc2ccccc2n1-c1cc(N2CCOCC2)nc(NCC2CCN([C@H]3CC[C@@H](F)CC3)CC2)n1 [Example 43-2, dihydrochloride] ?
5.10

Look up pIC50: CN(C)CC(=O)N1CCC(CNc2nc(N3CCOCC3)nc(-n3c(C(F)F)nc4ccccc43)n2)CC1 [Example 67]
6.00

// lookup pIC50 for C[C@H]1COCCN1c1cc(-n2c(C(F)F)nc3ccccc32)nc(NCC2CCN(C3CCOCC3)CC2)n1 [Example 38]
5.66

What does the record list as pIC50 for FC(F)c1nc2ccccc2n1-c1cc(N2CCOCC2)nc(NCCC2CCN(Cc3ccccc3)CC2)n1 [Example 25] ?
5.21

I would be grateful if you could share the reported pIC50 for C[C@H]1COCCN1c1cc(-n2c(C(F)F)nc3ccccc32)nc(NC[C@H]2CCCN(C(=O)OC(C)(C)C)C2)n1 [Example 20] .
5.74

Record request: pIC50 value, item O=C(CNC1CCCCC1)N[C@H]1CC[C@H](Oc2cc(-n3c(C(F)F)nc4ccccc43)nc(N3CCOCC3)n2)CC1 [Example 135]
5.10

Fill in the blank: the reported pIC50 of CC(C)(O)CNC12CCC(CNc3nc(N4CCOCC4)cc(-n4c(C(F)F)nc5ccccc54)n3)(CC1)CC2 [Example 85] is ____.
5.26

Would you kindly share the measured pIC50 for FC(F)c1nc2ccccc2n1-c1cc(N2CCOCC2)nc(NCC2CCN([C@H]3CC[C@H](F)CC3)CC2)n1 [Example 43-1, dihydrochloride] ?
4.89

For the compound FC(F)c1nc2ccccc2n1-c1cc(N2CCOCC2)nc(NCC2CCN(c3ccccc3)CC2)n1 [Example 44, dihydrochloride] , what pIC50 is on record?
5.30

Entry O=C(CNCC1CC1)N[C@H]1CC[C@H](Oc2cc(-n3c(C(F)F)nc4ccccc43)nc(N3CCOCC3)n2)CC1 [Example 133] has what pIC50?
5.23

// returns reported pIC50 for input C[C@@H]1C[C@@H](N2CCC(CNc3nc(N4CCOCC4)cc(-n4c(C(F)F)nc5ccccc54)n3)CC2)C[C@H](C)O1 [Example 224]
5.14

Form field: reported pIC50 of CN1CC(C(=O)N2CC[C@H](Oc3cc(-n4c(C(F)F)nc5ccccc54)nc(N4CCOCC4)n3)C2)CC1=O (stereo partly drawn) [A451]
5.66

Values from patent US8912180B2
